Biological target: native human MET on living cells (human, UniProt P08581 25-1390)
Sequence (P08581 25-1390): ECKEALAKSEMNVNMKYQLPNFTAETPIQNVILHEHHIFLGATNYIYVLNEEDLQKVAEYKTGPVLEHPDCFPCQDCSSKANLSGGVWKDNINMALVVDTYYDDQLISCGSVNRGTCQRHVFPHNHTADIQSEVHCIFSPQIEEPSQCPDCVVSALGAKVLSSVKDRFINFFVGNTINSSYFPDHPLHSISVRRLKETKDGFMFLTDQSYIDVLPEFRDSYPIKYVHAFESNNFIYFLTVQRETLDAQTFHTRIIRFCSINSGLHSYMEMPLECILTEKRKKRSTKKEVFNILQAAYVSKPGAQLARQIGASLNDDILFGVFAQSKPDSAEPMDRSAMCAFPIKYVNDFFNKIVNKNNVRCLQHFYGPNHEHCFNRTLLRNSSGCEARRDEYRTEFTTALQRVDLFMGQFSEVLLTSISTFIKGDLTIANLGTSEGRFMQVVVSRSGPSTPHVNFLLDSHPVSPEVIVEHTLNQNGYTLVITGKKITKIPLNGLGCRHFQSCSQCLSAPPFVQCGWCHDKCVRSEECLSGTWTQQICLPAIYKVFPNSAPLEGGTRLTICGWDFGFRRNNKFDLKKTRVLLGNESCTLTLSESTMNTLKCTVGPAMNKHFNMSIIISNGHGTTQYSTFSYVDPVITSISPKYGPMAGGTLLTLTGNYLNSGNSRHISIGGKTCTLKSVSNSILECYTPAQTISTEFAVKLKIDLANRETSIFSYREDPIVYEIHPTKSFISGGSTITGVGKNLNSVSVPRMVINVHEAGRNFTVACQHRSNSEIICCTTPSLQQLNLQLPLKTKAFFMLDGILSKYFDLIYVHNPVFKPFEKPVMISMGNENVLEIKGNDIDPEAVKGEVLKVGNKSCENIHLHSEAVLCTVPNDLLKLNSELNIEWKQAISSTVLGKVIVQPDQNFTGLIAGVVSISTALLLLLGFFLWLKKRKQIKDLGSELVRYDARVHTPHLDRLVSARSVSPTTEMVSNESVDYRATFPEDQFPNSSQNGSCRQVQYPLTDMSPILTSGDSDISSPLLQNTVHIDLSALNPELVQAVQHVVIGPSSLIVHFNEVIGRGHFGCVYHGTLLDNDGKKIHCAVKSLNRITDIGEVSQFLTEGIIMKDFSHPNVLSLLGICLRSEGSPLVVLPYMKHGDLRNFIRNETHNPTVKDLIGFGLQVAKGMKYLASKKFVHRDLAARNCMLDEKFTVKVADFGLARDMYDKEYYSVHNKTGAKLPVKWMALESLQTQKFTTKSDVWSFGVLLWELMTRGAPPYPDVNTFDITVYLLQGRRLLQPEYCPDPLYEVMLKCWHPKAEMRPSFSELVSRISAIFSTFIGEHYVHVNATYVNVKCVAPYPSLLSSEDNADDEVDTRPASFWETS
Assay: cell-based or functional assay

binder: 72F8 chimeric llama-human IgG1 mAb (antibody, V domains shown, llama VH on human IgG1 CH1-CH2-CH3, llama VL on human lambda CL) VH: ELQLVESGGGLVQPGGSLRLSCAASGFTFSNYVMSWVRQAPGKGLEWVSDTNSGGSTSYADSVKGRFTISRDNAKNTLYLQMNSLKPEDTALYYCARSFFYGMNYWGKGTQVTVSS VL: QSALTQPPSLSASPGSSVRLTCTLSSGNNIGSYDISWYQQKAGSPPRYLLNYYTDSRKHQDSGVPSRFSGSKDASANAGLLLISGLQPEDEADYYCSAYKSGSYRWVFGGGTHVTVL
measurement_unit: score
scatter score 0-4, HPAF-II, 0.004 nM: 0
//
binder: 71A3 chimeric llama-human IgG1 mAb (antibody, V domains shown, llama VH on human IgG1 CH1-CH2-CH3, llama VL on human lambda CL) VH: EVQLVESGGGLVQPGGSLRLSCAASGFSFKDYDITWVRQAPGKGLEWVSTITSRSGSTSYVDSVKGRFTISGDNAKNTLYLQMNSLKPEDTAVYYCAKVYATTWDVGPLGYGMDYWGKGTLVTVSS VL: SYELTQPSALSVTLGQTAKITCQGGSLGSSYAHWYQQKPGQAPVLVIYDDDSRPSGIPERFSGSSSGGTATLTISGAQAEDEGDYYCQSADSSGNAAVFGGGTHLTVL
measurement_unit: score
scatter score 0-4, HPAF-II, 0.004 nM: 0
